experiment: Stat Signaling Pathway (AID 446); conditions: ME-180 SIE beta-lactamase reporter, IL-6 stimulated, 5 h; at 17.2 µM (top of the series) unless noted;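 further: ME-180 cervical cancer cells given 40 pM IL-6 alongside compound; SIE-controlled beta-lactamase reporter measured as 460/530 nm FRET emission ratio; on the % scale 0 is the no-effect control and ±100 the full control effect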
Records with an inconclusive call do not appear.
Listing of entries alongside the reported activity, negative = inhibition.
Assay endpoint: activity, negative = inhibition (%)

compound=CC(=O)[C@@]1(O)CC[C@H]2[C@@H]3CCC4=CC(=O)CC[C@]4(C)[C@H]3[C@@H](O)C[C@@]21C reported=4.29
compound="CCCCC(C(=O)O)C(C)CC(=O)Nc1cccc(C(=O)O)c1 (stereo not given)" reported=12.4
compound=Cc1ccc2cc(CN(C(=O)c3ccco3)c3ccccc3)c(=O)[nH]c2c1 reported=-2.89
compound="O=C1C=C(O)CC(c2cccs2)C1 (stereo not given)" reported=-2.06
compound="Cc1nnc2n(-c3ccccc3)c(=O)c3c4c(sc3n12)COC(C(C)C)C4 (stereo not given)" reported=4.52

* * *

assay: qHTS Assay for Identification of Small Molecule Agonists for Hypoxia Response Element Signaling Pathway (AID 914); conditions: ME-180 (cervical carcinoma) HRE-bla reporter, beta-lactamase ratio, CoCl2, 17 h; further: potency means the concentration at half of the fitted maximal effect
Inconclusive results are not listed. Calls of active or inactive are those of the source. Calls come from the whole dose curve; as a rule, active = well fitted activation curve with a large enough effect in the signal ratio, with a control signal flat (not every such curve was filed as active); inconclusive = small, poorly fitted or top-dose-only effect, or effect the other way, or a change in a side signal; inactive = flat fitted curve, though single readings scatter; the % refers to the signal ratio.
Listing of entries alongside the reported Potency.
Assay endpoint: Potency

molecule=CCNC(=O)c1cc2c(=O)n3cccc(C)c3nc2n(CCc2ccccc2)c1=N assay_endpoint=Potency reported="10 µM (active)"
molecule=CCCCCCc1cc2cc(-c3nnc(-c4ccccc4O)o3)c(=O)oc2cc1O assay_endpoint=Potency reported="3.16 µM (active)"
molecule=COCCCNC(=O)c1c(N)n(/N=C/c2cccnc2)c2nc3ccccc3nc12 assay_endpoint=Potency reported="10 µM (active)"
molecule="O=C(O)C1CC=CCC1C(=O)N1CCN(c2nc(-c3ccccc3)c3ccccc3n2)CC1 (configuration not stated)" assay_endpoint=Potency reported="3.98 µM (active)"
molecule="O=C(NC1CCS(=O)(=O)C1)c1c(NC(=O)C2COc3ccccc3O2)sc2c1CCCC2 (configuration not stated)" assay_endpoint=Potency reported="5.01 µM (active)"
molecule=Cc1nnc2c(NC(C)C)nc3ccccc3n12 assay_endpoint=Potency reported="10 µM (active)"
molecule="N#CC1=C(SCC(=O)c2ccccc2)NC2=C(C(=O)CCC2)C1c1ccco1 (configuration not stated)" assay_endpoint=Potency reported="10 µM (active)"
molecule=CCOC(=O)c1cc2c(=O)n3cccc(C)c3nc2n(C)c1=N assay_endpoint=Potency reported="6.31 µM (active)"
molecule=CC(C)CNC(=O)c1c(N)n(/N=C/c2cccnc2)c2nc3ccccc3nc12 assay_endpoint=Potency reported="10 µM (active)"
molecule=O=c1cc(N2CCCCC2)nc2n1CCCS2 assay_endpoint=Potency reported="6.31 µM (active)"
molecule=Cc1cc(-c2cc(-c3ccc(Cl)cc3)nc(N)c2C#N)co1 assay_endpoint=Potency reported="7.94 µM (active)"
molecule=COCCNC(=O)c1c(N)n(CCC2=CCCCC2)c2nc3ccccc3nc12 assay_endpoint=Potency reported="10 µM (active)"
molecule=CCOC(=O)c1c(-c2cccs2)csc1NC(=O)c1ccncc1 assay_endpoint=Potency reported="6.31 µM (active)"
molecule="CCOC(=O)C1/C(=N\\O)CC(C)(O)C(C(=O)OCC)C1c1ccc(OC)c(OC)c1 (configuration not stated)" assay_endpoint=Potency reported="0.794 µM (active)"
molecule=Cc1ccc(S(=O)(=O)c2cc3c(=O)n4ccccc4nc3n(C)c2=N)cc1 assay_endpoint=Potency reported="7.94 µM (active)"
molecule=Cc1ccc(C(=O)/C=C/Nc2cccc(O)c2)cc1 assay_endpoint=Potency reported="10 µM (active)"
molecule=CN(C)c1ccc(-c2nn3c(-c4ccc(Cl)cc4)nnc3s2)cc1 assay_endpoint=Potency reported="10 µM (active)"
molecule=CCCCCNC(=O)c1c(N)n(/N=C/c2ccco2)c2nc3ccccc3nc12 assay_endpoint=Potency reported="7.94 µM (active)"
molecule=COc1ccc(OC)c2c(N)c(C#N)c(C(F)(F)C(F)(F)F)nc12 assay_endpoint=Potency reported="10 µM (active)"
molecule=C=CCn1c(N)c(C(=O)Nc2ccccc2)c2nc3ccccc3nc21 assay_endpoint=Potency reported="5.01 µM (active)"
molecule="CCOC(=O)C1=C(C)NC(SCC(=O)Nc2nc(C)cs2)=C(C#N)C1c1cccs1 (configuration not stated)" assay_endpoint=Potency reported="10 µM (active)"
molecule=N=c1c(C(=O)NCc2ccccc2)cc2c(=O)n3ccccc3nc2n1Cc1ccco1 assay_endpoint=Potency reported="6.31 µM (active)"
